Reference source for all entries: patent US20180273528A1

Target: His-TEV-DYRK1A Kinase domain (aa127-485) (Homo sapiens)
Construct: His-TEV-DYRK1A Kinase domain (aa127-485); His tag (N); TEV protease cleavage site (N)
Assay: Kinase ADP assay (ADP Hunter), DYRK1A kinase domain
Format: biochemical
Details: 20 μM ATP
For each of the molecules below, state its IC50.
A number alone suffices; assume µM.

Entry under review: Cc1nc2ccc(-c3cc(N)nc(N)c3)nc2n1CCOc1ccccc1Cl [Example 204] . Reported IC50?
0.041

Sample Cc1nc2ccc(-c3cc(N)nc(N)c3)nc2n1C[C@H](C)Oc1nc(F)ccc1F (single isomer, unassigned) [Example 192] — what was its IC50?
0.084

Item under review: Cc1nc2ccc(-c3cc(N)nc(N)c3)nc2n1CC1CC1 [Example 11] . Reported IC50?
0.011

Recorded IC50 of COc1cc(Cl)ccc1Cn1c(C)nc2ccc(-c3cc(N)nc(N)c3)nc21 [Example 39] , please.
0.045

###

Molecular target: His-TEV-DYRK1A Kinase domain (aa127-485) (Homo sapiens, UniProt Q13627)
Construct: His-TEV-DYRK1A Kinase domain (aa127-485); His tag (N); TEV protease cleavage site (N)
Experiment: Kinase ADP assay (ADP Hunter), DYRK1A kinase domain
Assay type: biochemical
Conditions: 20 μM ATP
measureName: IC50 (µM)
Give a bare numeral; the unit µM is implied.

# input molecule: Cc1nc2ccc(-c3cc(N)nc(N)c3)nc2n1[C@@H]1C[C@@H]1Cc1ccccc1 (single isomer, unassigned) [Example 140] ; wanted: its IC50
0.007

// IC50 lookup, key: COCCCn1c(C)nc2ccc(-c3cc(N)nc(N)c3)nc21 [Example 150]
0.019

Data request, read-out IC50, for Cc1nc2ccc(-c3cc(N)nc(N)c3)nc2n1C1CC(F)C1 (stereo not shown) [Example 103]
0.006

Report IC50 for CSCCCn1c(C)nc2ccc(-c3cc(N)nc(N)c3)nc21 [Example 44] please.
0.011

Which IC50 value belongs to COCCCCn1c(C)nc2ccc(-c3cc(N)nc(N)c3)nc21 [Example 151] ?
0.013

Would you mind telling me what IC50 value was observed for Cc1nc2ccc(-c3cc(N)nc(N)c3)nc2n1C[C@@H](C)Oc1cccc(F)c1 (single isomer, unassigned) [Example 124] ?
0.006

Return reported IC50; argument: Cc1nc2ccc(-c3cc(N)nc(N)c3)nc2n1CCOc1cccc(C(F)F)n1 [Example 173]
0.007

IC50 lookup needed for Cc1nc2ccc(-c3cc(N)nc(N)c3)nc2n1CCOc1ncccn1 [Example 219] , thanks.
0.04

Bench note: what IC50 did Cc1nc2ccc(-c3cc(N)nc(N)c3)nc2n1C[C@@H](C)Oc1ccc(F)cc1 (single isomer, unassigned) [Example 130] show?
0.058

Which IC50 is reported for this molecule? COc1cc(Cn2c(C)nc3ccc(-c4cc(N)nc(N)c4)nc32)ccn1 [Example 72]
0.015

I'd like to know its IC50. The molecule in question is Cc1nc2ccc(-c3cc(N)nc(N)c3)nc2n1Cc1cccnc1 [Example 7]
0.079

For Cc1nc2ccc(-c3cc(N)nc(N)c3)nc2n1CC1CCOCC1 [Example 80] , what is its reported IC50?
0.043

Which value of IC50 has been reported for Cc1nc2ccc(-c3cc(N)nc(N)c3)nc2n1CCC(C)(C)C [Example 52] in the records?
0.006

May I ask what IC50 has been recorded for Cc1nc2ccc(-c3cc(N)nc(N)c3)nc2n1C[C@@H](C)Oc1cccc(F)n1 (single isomer, unassigned) [Example 189] ?
0.013

What does the data say about its IC50? Entry: Cc1nc2ccc(-c3cc(N)nc(N)c3)nc2n1CCOc1ccc(Cl)cn1 [Example 164]
0.032

If you can, please state the reported IC50 value of Cc1nc2ccc(-c3cc(N)nc(N)c3)nc2n1Cc1cc(Cl)ccc1Cl [Example 57] .
0.085

Recorded IC50 for Cc1nc2ccc(-c3cc(N)nc(N)c3)nc2n1C1CCCCC1 [Example 54] , please?
0.006

GET /values?readout=IC50&item= COc1cccc2c1CCC(n1c(C)nc3ccc(-c4cc(N)nc(N)c4)nc31)C2 (stereo not shown) [Example 93]
0.007

What does the record list as IC50 for Cc1nc2ccc(-c3cc(N)nc(N)c3)nc2n1CCc1ccco1 [Example 19] ?
0.012

Record request: IC50 value, item Cc1nc2ccc(-c3cc(N)nc(N)c3)nc2n1C[C@H](C)Oc1ccc(F)cn1 (single isomer, unassigned) [Example 178]
0.176

Endpoint output: IC50 of COc1cccc(CCn2c(C)nc3ccc(-c4cc(N)nc(N)c4)nc32)c1 [Example 152] . Value?
0.012

# get_value(readout='IC50', item= Cc1nc2ccc(-c3cc(N)nc(N)c3)nc2n1C[C@H](C)Oc1ccccc1Cl (single isomer, unassigned) [Example 117] )
0.006

Which measured IC50 value corresponds to Cc1nc2ccc(-c3cc(N)nc(N)c3)nc2n1C(C)(C)c1ccccc1 [Example 60] ?
0.51

Query (molecule): Cc1nc2ccc(-c3cc(N)nc(N)c3)nc2n1Cc1ccc(C#N)cc1 [Example 40] ; field requested: IC50
0.187

Quick check: IC50 of Cc1nc2ccc(-c3cc(N)nc(N)c3)nc2n1C[C@H](C)Oc1ncccc1Br (single isomer, unassigned) [Example 182] ?
0.026

Can you look up the measured IC50 of COc1ccc(OCCn2c(C)nc3ccc(-c4cc(N)nc(N)c4)nc32)cc1 [Example 209] for me?
0.025

# lookup: IC50 of Cc1nc2ccc(-c3cc(N)nc(N)c3)nc2n1C[C@@H](C)Oc1ccc(F)cn1 (single isomer, unassigned) [Example 179]
0.023

Need IC50, item CCOc1cccc(CCn2c(C)nc3ccc(-c4cc(N)nc(N)c4)nc32)c1 [Example 90]
0.015

Any idea what its IC50 is? The molecule is Cc1nc2ccc(-c3cc(N)nc(N)c3)nc2n1C1Cc2ccccc2C1 [Example 12]
0.009

Consider the molecule shown here: CCCCn1c(C)nc2ccc(-c3cc(N)nc(N)c3)nc21 [Example 148] What is its recorded IC50?
0.007

Return reported IC50; argument: Cc1nc2ccc(-c3cc(N)nc(N)c3)nc2n1C12CC3CC(CC(C3)C1)C2 [Example 56]
0.015

Param item = N#Cc1nc2ccc(-c3cc(N)nc(N)c3)nc2n1CCCC(F)(F)F [Example 226] ; retrieve measured IC50.
0.013

# IC50 lookup, item Cc1nc2ccc(-c3cc(N)nc(N)c3)nc2n1CCOc1ccccc1OC(C)C [Example 214]
0.072

Sample Cc1nc2ccc(-c3cc(N)nc(N)c3)nc2n1C/C=C/c1ccccc1 [Example 111] — what was its IC50?
0.012

###

Target: DYRK1A (Homo sapiens)
Experiment: Kinase TR-FRET assay, DYRK1A
Assay type: biochemical
Design: full-length, wild-type human DYRK1A (NM_001396) with an HA tag; expressed in transfected cells; host or cells: human U2-OS osteosarcoma cells, transient transfection of a pcDNA3.1 plasmid
Conditions: full-length human kinase, 10 μM ATP
# if measured IC50 < 0.006 µM: MET  # else: NOT MET

Input CCCCn1c(C)nc2ccc(-c3cc(N)nc(NC(=O)c4ccccc4Cl)c3)nc21 ; condition: IC50 strictly below 0.006 µM. Does it hold?
NOT MET

Check if IC50 falls below 0.006 µM for COCCCCn1c(C)nc2ccc(-c3cc(N)nc(N)c3)nc21 .
MET

Please determine if Cc1nc2ccc(-c3cc(N)nc(N)c3)nc2n1C[C@@H](C)Oc1cccc(F)n1 (single isomer, unassigned) is below 0.006 µM in terms of IC50.
NOT MET

In the record for Cc1nc2ccc(-c3cc(N)nc(N)c3)nc2n1CC1CC1 , is IC50 less than 0.006 µM?
MET

Answer whether the compound COc1ccccc1OCCn1c(C)nc2ccc(-c3cc(N)nc(N)c3)nc21 has IC50 strictly less than 0.006 µM
MET

In the record for Cc1nc2ccc(-c3cc(N)nc(N)c3)nc2n1C12CC3CC(CC(C3)C1)C2 , is IC50 less than 0.006 µM?
NOT MET

Take the compound Cc1nc2ccc(-c3ccnc(N)c3)nc2n1CC1CC1 and say whether its IC50 is less than 0.006 µM.
NOT MET

Lab note: confirm whether the reported IC50 for this compound is below 0.006 µM, equality not counting. compound: Cc1nc2ccc(-c3cc(N)nc(N)c3)nc2n1C(C)(C)C
NOT MET

###

Target: His-TEV-DYRK1A Kinase domain (aa127-485) (Homo sapiens, UniProt Q13627)
Construct: His-TEV-DYRK1A Kinase domain (aa127-485); His tag (N); TEV protease cleavage site (N)
Assay: Kinase ADP assay (ADP Hunter), DYRK1A kinase domain
Type: biochemical
Details: 20 μM ATP
Field 'label' (enum: Fulfilled / Not fulfilled). Set to Fulfilled when IC50 is strictly under 0.01 µM; else Not fulfilled.

Please state whether IC50 is below 0.01 µM for Cc1nc2ccc(-c3cc(N)nc(N)c3)nc2n1C1CCSCC1
Fulfilled

# check: IC50 < 0.01 µM for Cc1nc2ccc(-c3cc(N)nc(N)c3)nc2n1CC1Cc2ccccc21 (single isomer, unassigned) [Example 112]
Fulfilled

Below 0.01 µM on IC50? Entry Cc1nc2ccc(-c3cc(N)nc(N)c3)nc2n1C1CCOCC1
Not fulfilled

Does the reported IC50 of Cc1nc2ccc(-c3cc(N)nc(N)c3)nc2n1C[C@H](C)Oc1ccccc1F (single isomer, unassigned) stay below 0.01 µM?
Not fulfilled

Please let me know if Cc1nc2ccc(-c3cc(N)nc(N)c3)nc2n1[C@H](C)c1ccnc(F)c1 shows IC50 below 0.01 µM.
Not fulfilled

Answer whether the molecule CCc1nc2ccc(-c3cc(N)nc(N)c3)nc2n1C has IC50 strictly less than 0.01 µM
Not fulfilled

Problem: For the molecule CCC(c1ccccc1)n1c(C)nc2ccc(-c3cc(N)nc(N)c3)nc21 (centres unmarked) , is IC50 under 0.01 µM?
Not fulfilled

In the record for Cc1nn(C)c(C)c1Cn1c(C)nc2ccc(-c3cc(N)nc(N)c3)nc21 , is IC50 less than 0.01 µM?
Not fulfilled
